- System: Bacillus subtilis
- EXPERIMENTAL PROTOCOL: Antimicrobial activity against Bacillus subtilis at 1 mg/mL by agar-well diffusion assay
- Format: functional, organism-based
Activity calls are given as the source filed them. The calls are words filed in the database; no cut-off is given here.
ASSAY ENDPOINT: Activity

INSERT INTO results (mol, assay_endpoint, reported) VALUES
  ('COC(=O)C1=CC[C@@]23CC[C@@H]([C@@](C)(/C=C/C=C(\C)C(=O)O)OC2=O)[C@@]3(O)CC1', 'Activity', 'inactive'),
  ('COC(=O)C1=CC[C@@]23CC[C@@H]([C@@](C)(/C=C/C=C(\C)C(=O)O[C@@H]4O[C@H](CO)[C@@H](O)[C@H](O)[C@H]4O)OC2=O)[C@@]3(OC(C)=O)CC1', 'Activity', 'inactive'),
  ('COC(=O)C1=CC[C@@]23CC[C@@H]([C@@](C)(/C=C/C=C(\C)C(=O)OC)OC2=O)[C@@]3(OC(C)=O)CC1', 'Activity', 'inactive');

* * *

- System: Candida albicans
- EXPERIMENTAL PROTOCOL: Antimicrobial activity against Candida albicans at 1 mg/mL by agar-well diffusion assay
- Assay type: functional
- ASSAY SETUP: Candida albicans; read-out: IZ
ASSAY ENDPOINT: zone of inhibition at 1000 µg/mL

Lab request: please report zone of inhibition at 1000 µg/mL under test system Candida albicans for COC(=O)C1=CC[C@@]23CC[C@@H]([C@@](C)(/C=C/C=C(\C)C(=O)OC)OC2=O)[C@@]3(OC(C)=O)CC1
< 1 mm

Lab request: please report zone of inhibition at 1000 µg/mL under test system Candida albicans for COC(=O)C1=CC[C@@]23CC[C@@H]([C@@](C)(/C=C/C=C(\C)C(=O)O[C@@H]4O[C@H](CO)[C@@H](O)[C@H](O)[C@H]4O)OC2=O)[C@@]3(OC(C)=O)CC1
< 1 mm

Lab request: please report zone of inhibition at 1000 µg/mL under test system Candida albicans for COC(=O)C1=CC[C@@]23CC[C@@H]([C@@](C)(/C=C/C=C(\C)C(=O)O)OC2=O)[C@@]3(OC(C)=O)CC1
7 mm

Lab request: please report zone of inhibition at 1000 µg/mL under test system Candida albicans for C/C(=C\C=C\[C@@]1(C)OC(=O)[C@]23CC=C(C(=O)O)CC[C@]2(O)[C@H]1CC3)C(=O)O
< 1 mm

Lab request: please report zone of inhibition at 1000 µg/mL under test system Candida albicans for CC(=O)O[C@]12CCC(C(=O)O)=CC[C@]13CC[C@H]2[C@@](C)(/C=C/C=C(\C)C(=O)O)OC3=O
< 1 mm

Lab request: please report zone of inhibition at 1000 µg/mL under test system Candida albicans for COC(=O)C1=CC[C@@]23CC[C@@H]([C@@](C)(/C=C/C=C(\C)C(=O)O)OC2=O)[C@@]3(O)CC1
1 mm

* * *

- EXPERIMENTAL PROTOCOL: Toxicity in ip dosed CD1 mouse
- Type: organism-based
- ASSAY SETUP: in vivo
ASSAY ENDPOINT: LD50 (mg/kg)
Write the answer as a number in mg/kg, unit excluded.

Quick check: LD50 of COC(=O)C1=CC[C@@]23CC[C@@H]([C@@](C)(/C=C/C=C(\C)C(=O)O)OC2=O)[C@@]3(OC(C)=O)CC1 ?
316

Cited source: ChEMBL document CHEMBL1159211
